Documented melting point across a set of molecules

STRUCTURE AS SMILES	RESULT
CCOC(=O)C(=Cc1ccc(F)cc1)C(C)=O	80 to 82 °C

Noted for Cc1nc2c(-c3ccc(N4CCN(C)CC4)cc3)cnn2c(N)c1-c1cccc(Cl)c1 : its melting point reads 113 to 115 °C

Noted for COC(=O)c1cccc2c1NCC2 : its melting point reads 70 to 73 °C

Noted for CCc1oc(-c2ccc(C(F)(F)F)cc2)cc1C=O : its melting point reads 95 to 96 °C

Noted for CCOC(=O)c1cn(CC)c2cc(C(=O)C=C(C)N(C)C)ccc2c1=O : its melting point reads 178 to 180 °C

----------
Documented melting point across a set of compounds

Worked cases, answers included:
COMPOUND	melting point
COCCOc1ccc(-c2sc(N)c(C(=O)c3ccc(Cl)cc3)c2CN(C2CCCCC2)C2CCCCC2)cc1	162 to 164 °C
CN(SN1CCOCC1)C(=O)Nc1ccc(Cl)c(Cl)c1	142 °C
COc1cccc(OC)c1C(=O)Nc1cc(C(C)(C)C)n[nH]1	176 to 178 °C
CCOC(=O)C1=C(COCCNS(=O)(=O)c2ccc(Cl)nc2)NC(C)=C(C(=O)OC)C1c1ccccc1Cl (centres undefined)	140 °C
Nc1cccc(Cn2c(-c3ccc(Nc4cncnc4)cc3)ccc2-c2ccccc2Cl)n1	88 to 90 °C

Noted for CC(O)c1ccc(-c2ccc(OCc3ccccc3)cc2)cc1 (single isomer, unassigned; (+)) : its melting point reads 158 to 159 °C

Noted for CC(C)(C)OC(=O)C1(ON=C(C(=O)O)c2ccco2)CCCC1 : its melting point reads 107 °C

Noted for NS(=O)(=O)c1cc(Cl)cc(Cl)c1O : its melting point reads > 225 °C

Noted for O=C(CN(C(=O)C(=O)N(CC(=O)OCc1ccccc1)S(=O)(=O)C(F)(F)F)S(=O)(=O)C(F)(F)F)OCc1ccccc1 : its melting point reads 53 to 55 °C

Noted for CC(C)(O)C#Cc1ccc(C(=C2CC(C)(C)CC(C)(C)C2)c2ccc(O)cc2)cc1 : its melting point reads 186 to 187 °C

----------
Documented melting point across a set of compounds

COMPOUND	RECORDED METRIC	RESULT
CCC1c2[nH]c3ccccc3c2CC(C(=O)O)N1C(=S)SC (centres undefined)	melting point	155 to 157 °C
Cn1ncc(/C=C/C(=O)Nc2ccc(Cc3nc(C(N)=O)cs3)cc2)c1-c1ccc(F)cc1	melting point	159 to 160 °C
O=C(c1ccc(Cl)cc1)c1cccnc1N1CCCCC1=O	melting point	154 to 156 °C

Proceed to the following item.
Noted for OCCCc1ccccc1OCc1ccccc1 : its melting point reads 45 to 48 °C

----------
RECORDED METRIC: melting point (°C)

STRUCTURE AS SMILES	RECORDED METRIC	QUANTITATIVE READOUT
COc1cc(-c2nc3ccccc3n2Cc2ccc(Cl)cc2Cl)cc(OC)c1OC	melting point	186
Nc1nc(Cl)cc(Oc2ccc3[nH]ccc3c2)n1	melting point	192

----------
RECORDED METRIC: melting point

Worked cases, answers included:
COMPOUND	melting point
COC(=O)C[C@H](O)C[C@H](O)CCc1c(-c2ccc(F)cc2)c(-c2ccccc2)c(C(=O)Nc2ccccc2)n1C(C)C	154 to 157 °C
CCC[C@H]1CC[C@H](C(=O)Oc2ccc(-c3ccc(F)cc3)cc2)CC1	96 °C
COc1cc(C(=O)c2c(N)sc3c2CCN(Cc2ccccc2)C3)ccc1OC(C)C	113 to 114 °C
O=C1CCCC(=O)C1C(=O)c1ccc(Cl)c(OCCn2cnnn2)c1Cl	46 to 54 °C
CC(=O)c1ccc(-c2ccc(C(=O)Nc3ccc4cc(CN5CCCC5)cnc4c3C)cc2)s1	194 to 195 °C
Cn1nc(Nc2cc(-c3ccc4c(c3)NC(=O)C4)cn3ccnc23)cc1C(C)(C)O	180 to 182 °C
O=C(O)CCCC/C=C(\c1cccnc1)c1ccc2c(c1)OCO2	90 to 91 °C
CCOC(=O)c1cn(C)c2cnc3cc(F)c(N4CC5(C)CC4CC(C)(C)C5)cc3c2c1=O (stereo not given)	187 °C
CCOC(=O)c1c(C(C)C)c2n(c1-c1ccc(F)cc1)CCCC2	76 to 78 °C
CCCCCCC(=N)NC(=S)Nc1ccc(C)cc1Cl	78 to 80 °C

Proceed to the following item.
Noted for CC(O)c1ccc2occ(C#N)c(=O)c2c1 (stereo not given) : its melting point reads 147 to 148 °C

Where do the numbers come from? From a melting point compilation (Tetko et al.; mined from patent text by program, amines drawn as free bases though some values may be those of a salt).
